pEC50 overview
Tested on: Human immunodeficiency virus 1
ASSAY_EXPLANATION: Antiviral activity against wild type HIV1 3B infected in human MT4 cells assessed as inhibition of virus-induced cytopathic effect after 5 days by MTT assay
Format: functional, organism-based
EXPERIMENTAL_CONDITIONS: Human immunodeficiency virus 1, 3B, MT4, 120 h
pEC50: −log10 of the molar value.
ENDPOINT_NAME: pEC50

# STRUCTURE_NOTATION, ENDPOINT_NAME, RESULT
data = [
    ("Cc1cc(C#N)cc(C)c1Oc1nc(Nc2ccc(C#N)cc2)ncc1SCC(N)=O", "pEC50", "6.66 to 8.62"),
    ("Cc1cc(C#N)cc(C)c1Oc1nc(Nc2ccc(C#N)cc2)ncc1SCC(=O)C(=O)O", "pEC50", "6.66 to 8.62"),
    ("Cc1cc(C#N)cc(C)c1Oc1nc(Nc2ccc(C#N)cc2)ncc1SCC(=O)NCCN1CCOCC1", "pEC50", "8.21 to 8.59"),
    ("C=CCNC(=O)CSc1cnc(Nc2ccc(C#N)cc2)nc1Oc1c(C)cc(C#N)cc1C", "pEC50", "8.42 to 8.62"),
]
